Assay: Metabolic stability in mouse liver microsomes
Format: in vitro ADME
Details: mouse liver microsomes; well-stirred model
attribute measured: Qp,h (percentage ratio of predicted clearance over plasma flow) (%)
The figure you give is taken to be in %; do not add the unit.

Example cases with answers are listed next.
Cc1c(C)c(=O)n2c([nH]c3ccccc32)c1C#N :: 72.5
COc1cccc(Cc2c(C)c(C#N)c3[nH]c4ccccc4n3c2=O)c1 :: 93.5

**Query** What value of measured Qp,h (percentage ratio of predicted clearance over plasma flow) is listed for Cc1c(Cc2ccccc2)c(=O)n2c([nH]c3ccccc32)c1C#N ?
**Result** 94.5

**Query** GET /values?readout=Qp,h (percentage ratio of predicted clearance over plasma flow)&item= Cc1c(Cc2ccc(Cl)cc2)c(=O)n2c([nH]c3ccccc32)c1C#N
**Result** 95.4

**Query** Could you share which Qp,h (percentage ratio of predicted clearance over plasma flow) value was measured for Cc1c(Cc2cccc(C(F)(F)F)c2)c(=O)n2c([nH]c3ccccc32)c1C#N ?
**Result** 90.0

Origin of values: paper PMC4575222
